- measurement description: chemical genetic growth profiling, strain panel (AID 1159580);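 note: tested at 20 µM; growth read once vehicle control cultures reached saturation at 30 °C; lower values mean less growth of the strain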
- measurement conditions: S. cerevisiae deletion strains, growth OD, locus YML016C, strain PPZ1
Out of some 5,500 compounds screened, about 2,000 (36%) were called active. Roughly 18% stayed inconclusive and do not appear here. Cut-off read from the data, not from the text of the source: active = normalized growth mostly below about 0.91 (no sharp cut-off); inconclusive = no clear call, values can overlap the other calls; inactive = mostly above about 0.92. The list shows a part of the results.
Returns: one label drawn from Y (active), N (inactive)

stdin: What did the test return for "CN(C)[C@@H]1C(=O)C(C(N)=O)=C(O)[C@@]2(O)C(=O)C3=C(O)c4c(O)ccc(Cl)c4[C@@H](O)[C@H]3C[C@@H]12" ?
stdout: N

stdin: Given "N[C@@H](CCC(=O)N[C@@H](CS)C(=O)NCC(=O)O)C(=O)O" , state the outcome it received in this test.
stdout: N

stdin: Please let me know the test result on file for CC12CCC(O)CC1CCC1C2[C@H](O)CC2(C)C(C3=CC(=O)OC3)CCC12O (stereo not given in full) .
stdout: N

stdin: Which outcome was assigned to "CN(C)c1ccc(O)c2c1C[C@H]1C[C@H]3[C@H](N(C)C)C(=O)C(C(N)=O)=C(O)[C@@]3(O)C(=O)C1=C2O" in this test?
stdout: N

stdin: Name the outcome recorded for "CC(=O)c1cc(CC=C(C)C)c(O)c(CC=C(C)C)c1" in the assay.
stdout: N

stdin: Record lookup: outcome of this test for "Cc1cc(=O)oc2cc(O)c(O)cc12" ?
stdout: N

stdin: I'd appreciate the recorded outcome for "CC1=CC(=O)c2ccccc2C1=O" from this test.
stdout: Y

stdin: Which outcome did this test record for the molecule CC(C)CC1NC(=O)CNC1=O (stereo not given) ?
stdout: N

stdin: Hey, what did the test say about "C=C1c2c(Cl)ccc(O)c2C(O)=C2C(=O)[C@]3(O)C(O)=C(C(N)=O)C(=O)[C@@H](N(C)C)[C@@H]3[C@@H](O)[C@H]12" ?
stdout: N

stdin: Can you look up the reported call for "CC(=O)c1ccc(O)c(CC=C(C)C)c1" for me?
stdout: N

The origin of these recorded values is PubChem BioAssay AID1159580.
